# Tested System: Anti-CD28 scFv (VH - linker 1 - VL) (biotinylated (site not given))
# Sequence (scFv, as listed by the source): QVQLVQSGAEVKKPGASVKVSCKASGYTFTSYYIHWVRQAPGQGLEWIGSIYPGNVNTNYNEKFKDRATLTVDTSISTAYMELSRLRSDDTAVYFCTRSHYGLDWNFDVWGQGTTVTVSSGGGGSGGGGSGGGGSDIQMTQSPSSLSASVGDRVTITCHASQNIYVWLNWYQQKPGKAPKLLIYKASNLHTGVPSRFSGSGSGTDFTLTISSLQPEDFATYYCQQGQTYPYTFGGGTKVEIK
# Measurement Notes: phage binding ELISA; biotinylated anti-CD28 scFv on neutravidin plate, bound phage detected with anti-M13-HRP
Where no end group is shown, it is not given here.
Measurement Name: CD28 scFv signal

| Binder | Observed Measurement |
| --- | --- |
| DSFCTWSAWQECGR (cysteine pairing not given here; also: phage-displayed pIII fusion, pIII and linker not given here, Clonal phage of the Peptide-9 library, tested as crude phage supernatant; not shown: pIII of the bacteriophage) [Phage-269] | 0.13 |
| MDWCPRFLWHECFN (cysteine pairing not given here; also: fused to phage pIII, linker and fusion site not given here, Clonal phage of the Peptide-9 library, tested as crude phage supernatant; not shown: pIII of the bacteriophage) [Phage-257] | 2.59 |
| MDWCPRDHWVDCYS (cysteine pairing not given here; also: displayed on phage as fusion to pIII, fusion limits and linker not given here, Clonal phage of the Peptide-9 library, tested as crude phage supernatant; not shown: pIII of the bacteriophage) [Phage-275] | 0.671 |
| IDWCPKIHWDLCYF (cysteine pairing not given here; also: displayed on phage as fusion to pIII, fusion limits and linker not given here, Clonal phage of the Peptide-9 library, tested as crude phage supernatant; not shown: pIII of the bacteriophage) [Phage-276] | 0.295 |
